Data origin, for the record: patent US20130096156A1

Exercise: state measured melting point for each of the compounds provided.

Data request: Recall and state the measured melting point for C=Cc1cnc2ccc(OC(SC)C(=O)NC(C)(C)/C=N/OC)cc2c1 (stereo not drawn) .
Data returned: 114 to 116 °C

Data request: Recall and state the measured melting point for C#CC(C)(C)NC(=O)C(Oc1ccc2ncc(C)cc2c1)SC (stereo not drawn) .
Data returned: 132 to 134 °C

Data request: Recall and state the measured melting point for C=Cc1cnc2c(Cl)cc(OC(CC)C(=O)NC(C)(C)C)cc2c1 (stereo not drawn) .
Data returned: 100 to 102 °C

Data request: Recall and state the measured melting point for C=Cc1cnc2c(F)cc(OC(SC)C(=O)NC(C)CC)cc2c1 (stereo not drawn) .
Data returned: 110 to 112 °C

Data request: Recall and state the measured melting point for C#CC(C)(C)NC(=O)C(Oc1cc(C)c2ncc(C=C)cc2c1)SC (stereo not drawn) .
Data returned: 115 to 117 °C

Data request: Recall and state the measured melting point for C#CC(C)(COC)NC(=O)C(Oc1cc(C)c2ncc(C)cc2c1)SC (stereo not drawn) .
Data returned: 119 to 120 °C

Data request: Recall and state the measured melting point for CCc1cnc2c(C)cc(OC(SC)C(=O)NC(C)(C)C#CCOC)cc2c1 (stereo not drawn) .
Data returned: 137 to 138 °C

Data request: Recall and state the measured melting point for CC#CC(C)(C)NC(=O)C(Oc1ccc2ncc(C)cc2c1)SC (stereo not drawn) .
Data returned: 128 to 129 °C

Data request: Recall and state the measured melting point for CCc1cnc2ccc(OC(CC)C(=O)NC(C)(C#N)COC)cc2c1 (stereo not drawn) .
Data returned: 114 to 117 °C

Data request: Recall and state the measured melting point for C#CC(C)(C)NC(=O)C(Oc1cc(C)c2ncc(CC)cc2c1)SC (stereo not drawn) .
Data returned: 92 to 93 °C

Data request: Recall and state the measured melting point for CCc1cnc2c(C)cc(OC(SC)C(=O)NC(C)(C)C)cc2c1 (stereo not drawn) .
Data returned: 153 to 154 °C

Data request: Recall and state the measured melting point for CCc1cnc2c(Cl)cc(OC(SC)C(=O)NC(C)(C)C#CCOC)cc2c1 (stereo not drawn) .
Data returned: 139 to 142 °C

Data request: Recall and state the measured melting point for CCc1cnc2ccc(OC(CC)C(=O)NC(C)(C)/C=N/OC)cc2c1 (stereo not drawn) .
Data returned: 125 to 127 °C

Data request: Recall and state the measured melting point for CCc1cnc2c(Cl)cc(OC(SC)C(=O)NC3CCC3)cc2c1 (stereo not drawn) .
Data returned: 154 to 156 °C

Data request: Recall and state the measured melting point for CC#CC(C)(C)NC(=O)C(Oc1cc(C)c2ncc(CC)cc2c1)SC (stereo not drawn) .
Data returned: 166 to 167 °C

Data request: Recall and state the measured melting point for CCc1cnc2c(C)cc(OC(SC)C(=O)NC(C)(C)/C=N/OC)cc2c1 (stereo not drawn) .
Data returned: 105 to 106 °C

Data request: Recall and state the measured melting point for CSC(Oc1ccc2ncc(C)cc2c1)C(=O)NC(C)(C)C (stereo not drawn) .
Data returned: 126 to 127 °C

Data request: Recall and state the measured melting point for CCc1cnc2c(F)cc(OC(SC)C(=O)NC(C)(C)/C=N/OC)cc2c1 (stereo not drawn) .
Data returned: 101 to 103 °C

Data request: Recall and state the measured melting point for CCc1cnc2c(C)cc(OC(SC)C(=O)NC3(C)CCC3)cc2c1 (stereo not drawn) .
Data returned: 150 to 151 °C

Data request: Recall and state the measured melting point for C=Cc1cnc2c(C)cc(OC(SC)C(=O)NC(C)(C)/C=N/OC)cc2c1 (stereo not drawn) .
Data returned: 87 to 89 °C

Data request: Recall and state the measured melting point for CC#CC(C)(C)NC(=O)C(Oc1cc(Cl)c2ncc(CC)cc2c1)SC (stereo not drawn) .
Data returned: 186 to 188 °C

Data request: Recall and state the measured melting point for CCc1cnc2c(Cl)cc(OC(SC)C(=O)NC(C)(C)/C=N/OC)cc2c1 (stereo not drawn) .
Data returned: 142 to 144 °C

Data request: Recall and state the measured melting point for C=Cc1cnc2c(F)cc(OC(SC)C(=O)NC(C)(C)/C=N/OC)cc2c1 (stereo not drawn) .
Data returned: 105 to 107 °C

Data request: Recall and state the measured melting point for CCc1cnc2ccc(OC(CC)C(=O)NC(C)(C)C#CCOC)cc2c1 (stereo not drawn) .
Data returned: 99 to 101 °C

Data request: Recall and state the measured melting point for COCC(C)(C#N)NC(=O)C(Oc1cc(C)c2ncc(C)cc2c1)SC (stereo not drawn) .
Data returned: 115 to 117 °C

Data request: Recall and state the measured melting point for C=Cc1cnc2ccc(OC(CC)C(=O)NC(C)(C#N)COC)cc2c1 (stereo not drawn) .
Data returned: 120 to 125 °C

Data request: Recall and state the measured melting point for CC#CC(C)(C)NC(=O)C(Oc1cc(F)c2ncc(CC)cc2c1)SC (stereo not drawn) .
Data returned: 151 to 153 °C

Data request: Recall and state the measured melting point for CO/N=C/C(C)(C)NC(=O)C(Oc1ccc2ncc(C)cc2c1)SC (stereo not drawn) .
Data returned: 130 to 132 °C

Data request: Recall and state the measured melting point for CCc1cnc2c(Cl)cc(OC(SC)C(=O)NC3(C)CCC3)cc2c1 (stereo not drawn) .
Data returned: 148 to 150 °C

Data request: Recall and state the measured melting point for CSC(Oc1cc(C)c2ncc(C)cc2c1)C(=O)NC(C)(C)C (stereo not drawn) .
Data returned: 126 to 127 °C

Data request: Recall and state the measured melting point for COCC#CC(C)(C)NC(=O)C(Oc1cc(C)c2ncc(C)cc2c1)SC (stereo not drawn) .
Data returned: 124 to 126 °C

Data request: Recall and state the measured melting point for CCC(C)(C)NC(=O)C(Oc1ccc2ncc(C)cc2c1)SC (stereo not drawn) .
Data returned: 103 to 104 °C

Data request: Recall and state the measured melting point for COCC#CC(C)(C)NC(=O)C(Oc1ccc2ncc(C)cc2c1)SC (stereo not drawn) .
Data returned: 100 to 102 °C

###

MEASURE NAME: melting point

Data request: Recall and state the measured melting point for CC#CC(C)(C)NC(=O)C(Oc1ccc2ncc(CC)cc2c1)SC (stereo not drawn) .
Data returned: 133 to 134 °C

Data request: Recall and state the measured melting point for CCc1cnc2c(C)cc(OC(SC)C(=O)NC3CCC3)cc2c1 (stereo not drawn) .
Data returned: 157 to 158 °C

Data request: Recall and state the measured melting point for C#CC(C)(C)NC(=O)C(Oc1ccc2ncc(C=C)cc2c1)SC (stereo not drawn) .
Data returned: 142 to 144 °C

Data request: Recall and state the measured melting point for C#CC(C)(C)NC(=O)C(Oc1cc(Cl)c2ncc(CC)cc2c1)SC (stereo not drawn) .
Data returned: 149 to 151 °C

Data request: Recall and state the measured melting point for CCc1cnc2ccc(OC(CC)C(=O)NC3(C)CCC3)cc2c1 (stereo not drawn) .
Data returned: 110 to 112 °C

Data request: Recall and state the measured melting point for C=Cc1cnc2c(Cl)cc(OC(SC)C(=O)NC(C)(C)C#N)cc2c1 (stereo not drawn) .
Data returned: 138 to 141 °C

Data request: Recall and state the measured melting point for C=Cc1cnc2c(Cl)cc(OC(OC)C(=O)NC(C)C)cc2c1 (stereo not drawn) .
Data returned: 108 to 112 °C

Data request: Recall and state the measured melting point for CO/N=C/C(C)(C)NC(=O)C(Oc1cc(C)c2ncc(C)cc2c1)SC (stereo not drawn) .
Data returned: 109 to 111 °C

Data request: Recall and state the measured melting point for CSC(Oc1cc(C)c2ncc(C)cc2c1)C(=O)NC1(C)CCC1 (stereo not drawn) .
Data returned: 150 to 151 °C
